Biological target: Histone deacetylase 3 (Homo sapiens, UniProt O15379)
Sequence (O15379 whole entry, the tested form may be a part): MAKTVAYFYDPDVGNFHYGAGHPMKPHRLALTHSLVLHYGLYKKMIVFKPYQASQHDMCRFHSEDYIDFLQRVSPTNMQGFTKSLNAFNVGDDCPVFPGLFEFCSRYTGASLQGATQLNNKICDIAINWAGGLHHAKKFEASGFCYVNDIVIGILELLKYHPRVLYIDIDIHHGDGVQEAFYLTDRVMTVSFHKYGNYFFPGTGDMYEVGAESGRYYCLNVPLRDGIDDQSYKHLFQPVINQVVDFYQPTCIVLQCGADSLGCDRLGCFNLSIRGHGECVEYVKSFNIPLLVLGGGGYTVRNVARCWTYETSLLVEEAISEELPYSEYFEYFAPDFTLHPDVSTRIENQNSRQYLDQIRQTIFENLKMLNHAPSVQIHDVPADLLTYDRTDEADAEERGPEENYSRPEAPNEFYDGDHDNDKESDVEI
Assay: Inhibition of recombinant human FLAG-tagged HDAC3 expressed in human HEK293F cells co-expressing His6-tagged SMRT (1 to 899 residues) using Fluor-de-lys substrate as substrate incubated for 3 hrs followed by substrate addition and measured after 60 mins by fluorescence based assay
Could you please report measured IC50 for the items listed next?
I only need the number, in nM, no unit after it.

Value of measured IC50 for the entry "CCC[C@H](NC(=O)C1CN(C)C1)c1ncc(-c2cc3ccccc3nc2OC)[nH]1" : 300

Record summary for "CCCCC[C@H](NC(=O)C1CN(C)C1)c1ncc(-c2cc3ccccc3nc2OC)[nH]1" : reported IC50 = 3500

Entry "CCCC[C@H](NC(=O)[C@H](C)c1c(C)[nH]c2ccc(O)cc12)c1ncc(-c2cc3ccccc3nc2OC)[nH]1" ; IC50 = 55.2

The reported IC50 of the molecule "CC[C@H](NC(=O)C1CN(C)C1)c1ncc(-c2cc3ccccc3nc2OC)[nH]1" was 28000

IC50 recorded for this molecule, "CCCC[C@H](NC(=O)C1CN(C)C1)c1ncc(-c2cc3ccccc3nc2OC)[nH]1" , is 160

Form field IC50, entry "CCCC[C@H](NC(=O)Cc1c[nH]c2ccc(OC)cc12)c1ncc(-c2cc3ccccc3nc2OC)[nH]1" : 360
